// data source = PubChem BioAssay (NCATS)

Tested on: CP215
Method description: qHTS profiling for inhibitors of Plasmodium falciparum proliferation (AID 504749); note: nearly all actives have a fitted effect of over 60% in size; note: potency is the fitted concentration of half-maximal effect
Measurement setup: P. falciparum in erythrocytes, SYBR Green DNA, 72 h; series mostly up to 28.7 µM
Records with an inconclusive call do not appear. Activity calls are given as the source filed them. Calls come from the whole dose curve; as a rule, active = well fitted inhibition curve with a large enough effect; inconclusive = small, poorly fitted or top-dose-only effect; inactive = flat fitted curve, though single readings scatter.

>  <Molecule>
Nc1c(N=Nc2ccc(-c3ccc(N=Nc4cc(S(=O)(=O)O)c5ccccc5c4N)cc3)cc2)cc(S(=O)(=O)O)c2ccccc12

>  <Potency>
inactive

$$$$
>  <Molecule>
CC(C(=O)O)c1ccc(N2Cc3ccccc3C2=O)cc1 (stereo unspecified)

>  <Potency>
inactive

$$$$
>  <Molecule>
C=CCSSSCC=C

>  <Potency>
inactive

$$$$
>  <Molecule>
CC1(C)C(C=C(Cl)Cl)C1C(=O)OCc1cccc(Oc2ccccc2)c1 (stereo unspecified)

>  <Potency>
inactive

$$$$
>  <Molecule>
O=C(COc1ccc(Cl)cc1)OCCNC12CC3CC(CC(C3)C1)C2

>  <Potency>
inactive

$$$$
>  <Molecule>
COC(C(=O)C(O)C(C)O)C1Cc2cc3cc(OC4CC(OC5CC(O)C(O)C(C)O5)C(O)C(C)O4)c(C)c(O)c3c(O)c2C(=O)C1OC1CC(OC2CC(OC3CC(C)(O)C(O)C(C)O3)C(O)C(C)O2)C(O)C(C)O1 (stereo unspecified)

>  <Potency>
2.39 µM (active)

$$$$
